# inhibition zone (IZ) per record follows
Test system: Bacillus subtilis
Assay text: Antimicrobial activity against Bacillus subtilis after 24 hrs by well-diffusion assay; further: test concentration or dose not given here
Assay type: functional
The answer should read as a number with its unit following.

• c1ccc(CSc2nnnn2-c2ccccc2)cc1 = 0 mm
• O=c1[nH]nnn1-c1ccccc1 = 14 mm

Query (molecule): O=c1n(CO)nnn1-c1ccccc1 ; field requested: inhibition zone (IZ) 33 mm

Which inhibition zone (IZ) reading was recorded for the molecule O=c1n(CCOCc2ccccc2)nnn1-c1ccccc1 ? 0 mm

Item CCOC(=O)CSc1nnnn1-c1ccccc1 has what recorded inhibition zone (IZ)? 13 mm

Entry Sc1nnnn1-c1ccccc1 has what inhibition zone (IZ)? 16 mm

Could you tell me which inhibition zone (IZ) is on file for OCn1nnn(-c2ccccc2)c1=S ? 30 mm

Form field: reported inhibition zone (IZ) of O=c1n(Cc2ccccc2)nnn1-c1ccccc1 0 mm

----------
Test system: Staphylococcus aureus
Assay text: Antimicrobial activity against Staphylococcus aureus after 24 hrs by well-diffusion assay; further: test concentration or dose not given here
Type: functional
Classification field: enter T for inhibition zone (IZ) values not below 9 mm, F for values below it.

• O=c1n(CO)nnn1-c1ccccc1 = T
• O=c1n(CCCCCCn2nnn(-c3ccccc3)c2=O)nnn1-c1ccccc1 = F
• O=c1n(CCOCc2ccccc2)nnn1-c1ccccc1 = F
• Sc1nnnn1-c1ccccc1 = T

Please check the record O=c1n(Cc2ccccc2)nnn1-c1ccccc1 and state if its inhibition zone (IZ) is at or above 9 mm. F

Check the entry O=c1n(CCO)nnn1-c1ccccc1 : does inhibition zone (IZ) equal or exceed 9 mm? F

Hello, I need to know if c1ccc(CSc2nnnn2-c2ccccc2)cc1 has measured inhibition zone (IZ) not below 9 mm. Thanks! F

State whether the measured inhibition zone (IZ) reaches 9 mm, counting equality as reaching it, for CC(=O)OCCn1nnn(-c2ccccc2)c1=O F

Record O=C(O)CCC(=O)OCn1nnn(-c2ccccc2)c1=S ; criterion: inhibition zone (IZ) no lower than 9 mm. Met? T

Given the entry OCn1nnn(-c2ccccc2)c1=S , answer whether its inhibition zone (IZ) meets or surpasses 9 mm. T

Does inhibition zone (IZ) meet or surpass 9 mm for c1ccc(-n2nnnc2SCCCCCCSc2nnnn2-c2ccccc2)cc1 ? F

Test whether the compound CC(=O)OCn1nnn(-c2ccccc2)c1=S records inhibition zone (IZ) of 9 mm or higher. T

Can O=c1[nH]nnn1-c1ccccc1 be said to have inhibition zone (IZ) at or above 9 mm? T

----------
System: Escherichia coli
Assay text: Antimicrobial activity against Escherichia coli after 24 hrs by microbroth dilution assay
Assay type: functional
Experimental readout: MIC (µg/mL)
Number only, in µg/mL; omit the unit.

Worked examples follow.
• OCn1nnn(-c2ccccc2)c1=S = 0.58
• O=c1n(CO)nnn1-c1ccccc1 = 1.76
• Sc1nnnn1-c1ccccc1 = 1.77
• O=c1[nH]nnn1-c1ccccc1 = 1.54
• O=C(O)CCC(=O)OCn1nnn(-c2ccccc2)c1=S = 1.37
• CC(=O)OCn1nnn(-c2ccccc2)c1=S = 13.9

Item CC(=O)OCn1nnn(-c2ccccc2)c1=O has what recorded MIC? 13.9

Can you look up the measured MIC of CC(=O)OCCn1nnn(-c2ccccc2)c1=O for me? 37

Report MIC for O=c1n(CCO)nnn1-c1ccccc1 please. 8

Which MIC value is on record for CCOC(=O)CSc1nnnn1-c1ccccc1 ? 15.9
